assay: Solubility measurements in biorelevant media (24 h shake, HPLC); format: physicochemical; details: SGF (simulated gastric fluid without pepsin), pH 1.2, simulated gastric fluid, thermodynamic from solid, SGF, pH of medium 1.2, 37 °C
Observation Type: solubility at 24 h (µg/mL)
Answer with a number only, understood to be in µg/mL.

[ask] Name the recorded solubility at 24 h for COc1ccc([C@@H](O)c2cc(-c3ncnc4cc(N5CCOCC5)ccc34)c(F)cc2Cl)nn1 [Form I] .
[reply] 891
